The measured values listed here are drawn from ChEMBL document CHEMBL4627397.

# experiment summary: physchem
# condition context: octanol/water, pH 7.4
# Description: Octanol/water partition coefficient, log D of compound at pH 7.4 by shake-flask method
recorded metric: logD

Below, each entry is followed by its recorded logD result.
compound=CCOC(=O)N1CCC(=C2c3ccc(Cl)cc3CCc3c(CO)ccnc32)CC1 recorded_result=2.6
compound=CCOC(=O)N1CCC(=C2c3ccc(Cl)cc3CCc3ccc(C(F)F)nc32)CC1 recorded_result=4.6
compound="CCOC(=O)N1CCC2(CC1)OC21c2ccc(Cl)cc2CCc2ccc[n+]([O-])c21 (configuration not stated)" recorded_result=2.1
compound=CCOC(=O)N1C=C/C(=C2/c3ccc(Cl)cc3CCc3cc(O)cnc32)CC1 recorded_result=3.9
compound="CCOC(=O)N1CCC(=C2c3ccc(Cl)cc3CC(F)c3cccnc32)CC1 (configuration not stated)" recorded_result=4.5

Problem: // logD lookup, key: OC1Cc2cccnc2C(=C2CCNCC2)c2ccc(Cl)cc21 (configuration not stated)
Solution: 0.94

Problem: Which logD value is on record for CCOC(=O)N1C=C/C(=C2\c3ccc(Cl)cc3CCc3cc(O)cnc32)CC1 ?
Solution: 3.1

Problem: Return reported logD; argument: CCOC(=O)N1CCC(=C2c3ccc(Cl)cc3CCc3ccc[n+](C)c32)CC1
Solution: 0.3

Problem: Entry CCOC(=O)N1C(O)CC(=C2c3ccc(Cl)cc3CCc3cccnc32)CC1O (configuration not stated) has what logD?
Solution: 2.3

Problem: Tell me the measured logD of OC1Cc2cc(Cl)ccc2C(=C2CCNCC2)c2ncccc21 (configuration not stated) , please.
Solution: 1.1

---

The molecules listed here are annotated with their microsomal CLint at 1 h, 10 µM.
# experiment summary: in vitro
# condition context: human, liver microsomes
The answer should read as a number with its unit following.

Below, each entry is followed by its recorded microsomal CLint at 1 h, 10 µM result.
molecule=CCOC(=O)N1CCC(=C2c3ccc(Cl)cc3CCc3ccc[n+](C)c32)CC1 recorded_result="23 µL/min/mg"
molecule=CCOC(=O)N1CCC(=C2c3ccc(Cl)cc3CCc3c(CO)ccnc32)CC1 recorded_result="283 µL/min/mg"
molecule="CCOC(=O)N1C(O)CC(=C2c3ccc(Cl)cc3CCc3cccnc32)CC1O (stereo unspecified)" recorded_result="21 µL/min/mg"
molecule=CCOC(=O)N1C=C/C(=C2\c3ccc(Cl)cc3CCc3cccnc32)CC1 recorded_result="68 µL/min/mg"
molecule=CCOC(=O)N1CCC(=C2c3ccc(Cl)cc3CCc3ccc(C(F)F)nc32)CC1 recorded_result="108 µL/min/mg"

Next, consider the following molecule.
Problem: // microsomal CLint at 1 h, 10 µM lookup, key: CCOC(=O)N1CCC(=C2c3ccc(Cl)cc3C(O)Cc3cccnc32)CC1 (stereo unspecified)
Solution: 157 µL/min/mg

---

A collection of compounds and their measured Papp
# experiment summary: in vitro
# condition context: dog, MDCK
# Description: Apparent permeability in RRCK cells
Report the value in ×10⁻⁶ cm/s with no unit label.

Problem: What measured Papp goes with Clc1ccc2c(c1)CCc1cccnc1C2=C1CCNCC1 [DESLORATADINE] ?
Solution: 2.8

Problem: // query Papp value for entry OC1Cc2cccnc2C(=C2CCNCC2)c2ccc(Cl)cc21 (stereo not given)
Solution: 79.9

Problem: Value lookup for Papp; key = CCOC(=O)N1CCC2(CC1)OC21c2ccc(Cl)cc2CCc2cccnc21 (stereo not given)
Solution: 17.9

Problem: What does the record list as Papp for CCOC(=O)N1CCC(=C2c3ccc(Cl)cc3CCc3ccc(C(F)F)nc32)CC1 ?
Solution: 7.7

Problem: Find the recorded Papp belonging to CCOC(=O)N1CCC(=C2c3ccc(Cl)cc3CCc3c(CO)ccnc32)CC1 and report it.
Solution: 16.2
